Entry source: patent US20260193326A1

molecular target: T1, AAV9; test: SPR, AAV on CM5 chip;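 note: surface plasmon resonance with AAV amine-coupled to the chip as ligand, nanobodies injected as analyte over a concentration series, rate constants and affinity fitted from binding curves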
T1 construct: also called adeno-associated virus serotype 9
READOUT TYPE: pKd
One number for each entry, as −log10 of the molar value.

BINDER: A4-031 (VHH) VHH: VQLQESGGGLVQPGGSLRLSCAASGSGFSINTMGWYRQAPGKQRELVATVTSAGSTNYAGSVKGRFTISRDNAKNTVYLQMNSLRPEDTAVYYCHVDEIRQSSWTTSNLWGQGTQVTVSS
REPORTED VALUE: 5.65
//
BINDER: A4-006 (VHH) VHH: VQLQESGGGLVQPGGSLRLSCAASGRHFSINTMGWYRQAPGKQRELVAAVTRGGSTNYAGSVKGRFTISRDNAKNTVYLQMNSLRPEDTAVYYCHIDEVRQSSWTTSNIWGQGTQVTVSS
REPORTED VALUE: 6.72

// for each binder below, give its pKd
1. A4-009 (VHH) VHH: VQLQESGGGLAQPGGSLRLSCAASGSRFSINTMGWYRQAPGKQREFVAAVTRGGSTNYAGSVKGRFTISRDNAKNTVYLQMNTLRPEDTAVYYCHVDEVRQSSWTTSNIWGQGTQVTVSS
2. A4-040 (VHH) VHH: VQLQESGGGLVQPGGSLRLSCAASGRIFSINTMGWYRQAPGKQRELVATVTRGGSTNYADSVKGRFTISRDNAKNTVYLQMNSLRPEDTAVYYCHVDEIRQSSWTTSNLWGQGTQVTVSS
3. A4-003 (VHH) VHH: VQLQESGGGLVQPGGSLRLSCVASGRSFSINTMGWYRQAPGKQRELVAAVTRGGSTNYAGSVKGRFTISRDNAKNTVYLQMNSLRPEDTAVYYCHIDEVRQSSWTTSNIWGQGTQVTVSS
4. A4-014 (VHH) VHH: VQLQESGGGLVQPGGSLRLSCAASGSRFSINSMGWYRQAPGKQRELVATVTRGGNTNYAGSVKGRFTISRDNAKNTVYLQMNSLRPEDTAVYYCHVDEVRESSWTTSNLWGQGTQVTVSS
5. A4-035 (VHH) VHH: VQLQESGGGLVQAGGSLRLSCAASGRGFSINTMGWYRQAPGKQRELVAAVTRGGTTNYADSVKGRFTISRDNAKNTVYLQMNSLRPEDTAVYYCHVDEVRQSSWTTSNLWGQGTQVTVSS
6. A4-026 (VHH) VHH: VQLQESGGGLVQPGGSLRLSCAASGSNFRINTMGWYRQAPGKQRELVAPVTRGGSTNYADSVKGRFTISRDNAKNTVYLQMNSLRPEDTAVYYCHVDEVRESSWTTSNLWGQGTQVTVSS

Reply:
7.00
8.66
6.74
7.88
8.76
7.51
